Provide the recorded IC50 for the entries that follow.
Molecular target: Sentrin-specific protease 6 (Homo sapiens, UniProt Q9GZR1);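 also: Luminescence-based dose-response confirmatory assay of SENP6 inhibition, following up an ultra-high-throughput screen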
Sequence (Q9GZR1 whole entry): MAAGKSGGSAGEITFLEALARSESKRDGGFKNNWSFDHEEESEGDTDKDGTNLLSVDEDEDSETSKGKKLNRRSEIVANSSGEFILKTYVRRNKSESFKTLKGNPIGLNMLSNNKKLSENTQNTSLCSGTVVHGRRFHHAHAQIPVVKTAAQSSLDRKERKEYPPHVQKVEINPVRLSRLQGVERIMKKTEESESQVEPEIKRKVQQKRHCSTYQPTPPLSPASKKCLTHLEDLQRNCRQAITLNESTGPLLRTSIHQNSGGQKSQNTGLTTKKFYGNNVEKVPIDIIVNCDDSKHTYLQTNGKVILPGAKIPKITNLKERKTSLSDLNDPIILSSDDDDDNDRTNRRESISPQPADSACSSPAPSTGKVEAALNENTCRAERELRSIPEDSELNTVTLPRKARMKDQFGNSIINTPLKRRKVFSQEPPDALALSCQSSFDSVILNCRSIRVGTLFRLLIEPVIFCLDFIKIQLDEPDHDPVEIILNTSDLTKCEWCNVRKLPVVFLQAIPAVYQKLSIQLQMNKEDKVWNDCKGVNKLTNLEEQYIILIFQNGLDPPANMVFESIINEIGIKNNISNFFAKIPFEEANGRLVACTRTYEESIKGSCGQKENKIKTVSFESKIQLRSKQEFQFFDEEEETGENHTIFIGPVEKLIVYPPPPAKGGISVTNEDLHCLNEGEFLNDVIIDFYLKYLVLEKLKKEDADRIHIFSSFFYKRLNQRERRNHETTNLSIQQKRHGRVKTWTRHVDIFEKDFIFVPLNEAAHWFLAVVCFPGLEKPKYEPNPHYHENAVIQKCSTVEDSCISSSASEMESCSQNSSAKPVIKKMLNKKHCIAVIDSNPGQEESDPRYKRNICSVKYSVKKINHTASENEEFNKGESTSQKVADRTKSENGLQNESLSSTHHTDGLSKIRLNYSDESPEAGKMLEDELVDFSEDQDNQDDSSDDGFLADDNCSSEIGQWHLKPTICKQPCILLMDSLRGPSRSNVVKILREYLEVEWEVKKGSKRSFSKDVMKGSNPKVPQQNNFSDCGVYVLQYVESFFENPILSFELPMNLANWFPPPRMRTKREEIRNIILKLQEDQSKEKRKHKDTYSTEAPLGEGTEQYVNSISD
Type: functional
The source made the active and inactive calls.

compound | tested-on | IC50
Cc1csc2nc(CSc3nc4ccccc4o3)c(Br)n12 | Sentrin-specific protease 6 (Homo sapiens, UniProt Q9GZR1) | 12.5 µM (active)
Oc1cccc(/C=N/Nc2cc(N3CCCC3)nc(N3CCCC3)n2)c1 | Sentrin-specific protease 6 (Homo sapiens, UniProt Q9GZR1) | 6.69 µM (active)
Cc1cccc(C(=O)Nc2scc(-c3ccc(Br)cc3)c2C(=O)O)c1 | Sentrin-specific protease 6 (Homo sapiens, UniProt Q9GZR1) | 4.28 µM (active)
COc1cc2c(C#N)c(N3CCCC3)nc(N)c2c(N)n1 | Sentrin-specific protease 6 (Homo sapiens, UniProt Q9GZR1) | 2.24 µM (active)
Cc1cccc(-c2noc(C3CCCCC3)n2)c1 | Sentrin-specific protease 6 (Homo sapiens, UniProt Q9GZR1) | 40.1 µM (active)
Nc1c2c(nc3sc4c(c13)CCCCC4)CCCC2 | Sentrin-specific protease 6 (Homo sapiens, UniProt Q9GZR1) | 33.7 µM (active)

// moving on: another record for IC50
Problem: Return reported IC50. Input compound: CCOC(=O)C1=C(COC(=O)c2ccc([N+](=O)[O-])s2)NC(=O)NC1C (configuration not stated)
Result: 4.48 µM (active)

====

molecular target: Heat shock factor protein 1 (Mus musculus); assay: enhancement of HSF1-driven luciferase signal – cell-based, NIH3T3, luminescence, dose retest, confirmation (AID 435004); type: functional;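 also: stress induced by proteasome inhibitor MG132 added 30 min after compound; luciferase reporter driven by HSF1 response element in NIH3T3 cells; actives raise luminescence as potentiators of the MG132 stress response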
Sequence (P38532 whole entry): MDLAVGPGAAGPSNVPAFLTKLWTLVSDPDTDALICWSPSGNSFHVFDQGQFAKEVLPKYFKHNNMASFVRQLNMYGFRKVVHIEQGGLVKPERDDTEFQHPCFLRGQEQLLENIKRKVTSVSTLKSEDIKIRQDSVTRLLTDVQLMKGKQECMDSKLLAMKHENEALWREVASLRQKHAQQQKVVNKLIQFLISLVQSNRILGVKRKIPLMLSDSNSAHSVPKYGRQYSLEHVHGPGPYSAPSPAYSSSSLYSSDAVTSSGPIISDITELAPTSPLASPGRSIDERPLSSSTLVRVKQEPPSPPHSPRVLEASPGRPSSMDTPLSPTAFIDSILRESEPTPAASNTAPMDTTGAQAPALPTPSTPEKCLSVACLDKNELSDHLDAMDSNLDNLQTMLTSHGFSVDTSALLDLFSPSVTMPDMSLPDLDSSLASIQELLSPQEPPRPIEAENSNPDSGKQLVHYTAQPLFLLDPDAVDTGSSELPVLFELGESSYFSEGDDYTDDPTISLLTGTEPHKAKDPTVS
Active and inactive are the calls of the source.
# output must be one of y = active, n = inactive

Record excerpt, results attached:
molecule | discrete-label
S=C(N/N=C/c1cccs1)NC1CC2CCC1C2 (centres undefined) | n
O=C1c2ccccc2C(=O)N1CC(O)COc1ccc(Br)cc1 (centres undefined) | y
S=C(NC1CCCCC1)NC1CC2C=CC1C2 (centres undefined) | n

Problem: I would be grateful if you could indicate the recorded call for `C=Cc1ncc(OC)c2c1[nH]c1ccccc12` .
Result: y

====

Provide the recorded AC50 for the entries that follow.
biological target: Histone-lysine N-methyltransferase NSD2 (Homo sapiens, UniProt O96028); assay type: biochemical
Sequence (O96028 whole entry): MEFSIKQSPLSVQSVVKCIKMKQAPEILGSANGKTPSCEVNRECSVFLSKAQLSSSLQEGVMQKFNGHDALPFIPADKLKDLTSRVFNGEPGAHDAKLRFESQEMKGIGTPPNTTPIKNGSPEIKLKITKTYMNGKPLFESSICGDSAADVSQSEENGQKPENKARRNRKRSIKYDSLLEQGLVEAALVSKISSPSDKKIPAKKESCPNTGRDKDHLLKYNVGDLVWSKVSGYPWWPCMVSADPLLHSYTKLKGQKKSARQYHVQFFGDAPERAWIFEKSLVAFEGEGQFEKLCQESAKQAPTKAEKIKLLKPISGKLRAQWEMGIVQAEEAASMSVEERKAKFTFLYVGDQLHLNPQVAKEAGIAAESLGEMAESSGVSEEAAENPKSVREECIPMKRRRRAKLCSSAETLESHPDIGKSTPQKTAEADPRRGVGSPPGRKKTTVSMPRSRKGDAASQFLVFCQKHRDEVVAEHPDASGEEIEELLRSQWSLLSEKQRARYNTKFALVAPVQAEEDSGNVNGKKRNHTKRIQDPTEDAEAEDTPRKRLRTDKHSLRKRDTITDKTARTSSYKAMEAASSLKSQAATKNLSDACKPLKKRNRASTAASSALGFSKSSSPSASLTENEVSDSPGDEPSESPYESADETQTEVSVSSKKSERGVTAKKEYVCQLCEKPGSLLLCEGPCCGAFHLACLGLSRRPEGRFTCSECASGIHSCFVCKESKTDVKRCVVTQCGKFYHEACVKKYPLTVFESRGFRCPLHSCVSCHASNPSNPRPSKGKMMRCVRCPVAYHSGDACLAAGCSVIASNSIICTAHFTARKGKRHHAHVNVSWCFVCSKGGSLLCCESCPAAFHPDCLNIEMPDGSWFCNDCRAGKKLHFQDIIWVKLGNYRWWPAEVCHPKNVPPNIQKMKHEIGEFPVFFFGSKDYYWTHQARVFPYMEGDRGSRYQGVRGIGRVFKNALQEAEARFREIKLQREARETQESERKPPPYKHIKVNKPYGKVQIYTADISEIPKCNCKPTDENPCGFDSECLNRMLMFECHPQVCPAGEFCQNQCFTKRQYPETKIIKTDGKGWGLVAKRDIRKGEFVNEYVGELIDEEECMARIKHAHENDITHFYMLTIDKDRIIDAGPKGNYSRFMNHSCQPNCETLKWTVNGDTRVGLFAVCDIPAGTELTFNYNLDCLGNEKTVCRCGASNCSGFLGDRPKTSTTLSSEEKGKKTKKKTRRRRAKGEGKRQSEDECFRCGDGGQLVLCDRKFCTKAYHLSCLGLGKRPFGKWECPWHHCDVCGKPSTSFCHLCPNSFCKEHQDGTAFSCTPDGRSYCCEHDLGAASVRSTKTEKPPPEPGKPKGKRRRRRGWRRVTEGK
Calls of active or inactive are those of the source.

Worked cases, AC50 given:
compound | observed-result
CCN(CC)CCCN(Cc1cc2cc3c(cc2[nH]c1=O)OCO3)C(=S)NCCCN(C)C | 9.07 µM (active)
CCOC(=O)C1=C(COC(=O)c2ccc([N+](=O)[O-])s2)NC(=O)NC1C (centres undefined) | 5.86 µM (active)
NC1=CC(=O)C(=O)c2cccnc21 | 0.546 µM (active)

// moving on: another record for AC50
Problem: Return reported AC50. Input compound: `O=C(Nc1ccccn1)c1ccc2c(=O)n3c(nc2c1)CCCCC3`
Result: 7.7 µM (active)

====

target: Hepatocyte nuclear factor 4-alpha (Homo sapiens); format: functional, cell-based;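 also: biochemical luminescence-based dose-response counterscreen measuring inhibition of HNF4 dimerization, run alongside a screen for blockers of ABHD5–perilipin-5 interaction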;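 also: split luciferase complementation of HNF4 fusion proteins in cell lysate measuring dimerization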
Sequence (P41235 whole entry, the tested form may be a part): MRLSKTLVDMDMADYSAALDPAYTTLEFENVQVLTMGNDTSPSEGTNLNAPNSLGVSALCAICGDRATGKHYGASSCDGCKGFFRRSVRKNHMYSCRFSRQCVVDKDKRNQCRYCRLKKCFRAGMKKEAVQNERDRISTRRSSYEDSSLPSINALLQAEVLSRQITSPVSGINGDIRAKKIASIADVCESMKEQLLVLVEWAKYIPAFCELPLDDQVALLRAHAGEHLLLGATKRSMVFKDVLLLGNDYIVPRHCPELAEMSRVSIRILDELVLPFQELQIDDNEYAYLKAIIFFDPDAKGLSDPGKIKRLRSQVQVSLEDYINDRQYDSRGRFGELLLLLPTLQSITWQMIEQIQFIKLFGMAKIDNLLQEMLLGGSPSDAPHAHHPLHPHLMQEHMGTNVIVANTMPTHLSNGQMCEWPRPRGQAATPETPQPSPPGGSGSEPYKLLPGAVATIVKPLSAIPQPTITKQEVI
Structures can show the parent of a compound that is named as a salt. The source made the active and inactive calls.
readout-type: IC50

compound | observed-result
O=C1NC(=O)N(c2ccccc2F)C(=O)/C1=C/c1ccc(Oc2ccc([N+](=O)[O-])cn2)cc1 | 1880 nM (active)
CN(C)CCOc1ccc(/C(=C(/CCCl)c2ccccc2)c2ccccc2)cc1 [TOREMIFENE CITRATE] | 7870 nM (active)
O=C(NC1CCCCC1)C(c1ccccc1F)n1c(=O)c(-c2ccco2)nc2ccccc21 (centres undefined) | 1840 nM (active)

// moving on: another record for IC50
Problem: Return reported IC50. Input compound: `CC1=CC(C)(C)Nc2ccc(OC(=O)c3cccnc3)cc21`
Result: 3220 nM (active)

====

Biological target: Sentrin-specific protease 7 (Homo sapiens, UniProt Q9BQF6)
Sequence (Q9BQF6 whole entry): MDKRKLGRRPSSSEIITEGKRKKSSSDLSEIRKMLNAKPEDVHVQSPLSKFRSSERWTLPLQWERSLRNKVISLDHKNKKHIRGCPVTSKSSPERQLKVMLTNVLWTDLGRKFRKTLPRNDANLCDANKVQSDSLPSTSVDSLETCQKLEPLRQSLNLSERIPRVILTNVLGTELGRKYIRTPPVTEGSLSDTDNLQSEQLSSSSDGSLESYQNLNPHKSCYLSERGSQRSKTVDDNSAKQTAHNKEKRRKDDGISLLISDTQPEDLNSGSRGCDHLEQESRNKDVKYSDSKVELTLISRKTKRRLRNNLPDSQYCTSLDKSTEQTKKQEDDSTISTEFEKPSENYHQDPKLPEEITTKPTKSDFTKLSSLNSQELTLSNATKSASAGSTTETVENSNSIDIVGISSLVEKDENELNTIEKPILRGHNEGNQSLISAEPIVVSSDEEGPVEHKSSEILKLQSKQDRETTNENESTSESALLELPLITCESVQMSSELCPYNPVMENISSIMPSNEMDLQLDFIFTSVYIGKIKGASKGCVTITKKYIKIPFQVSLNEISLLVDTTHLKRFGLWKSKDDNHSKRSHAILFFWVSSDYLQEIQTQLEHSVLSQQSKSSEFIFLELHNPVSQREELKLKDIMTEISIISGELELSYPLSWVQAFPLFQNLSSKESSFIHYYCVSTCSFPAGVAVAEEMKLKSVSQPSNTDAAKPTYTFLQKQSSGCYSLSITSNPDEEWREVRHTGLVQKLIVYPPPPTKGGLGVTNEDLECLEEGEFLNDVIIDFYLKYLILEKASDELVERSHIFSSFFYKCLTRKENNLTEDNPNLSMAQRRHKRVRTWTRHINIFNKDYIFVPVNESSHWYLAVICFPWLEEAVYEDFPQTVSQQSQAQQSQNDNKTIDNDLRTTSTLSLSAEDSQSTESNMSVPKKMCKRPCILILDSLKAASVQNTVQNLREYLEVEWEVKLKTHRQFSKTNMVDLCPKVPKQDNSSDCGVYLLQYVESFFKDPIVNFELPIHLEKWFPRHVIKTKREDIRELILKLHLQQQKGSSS
Test: inhibition of human SENP7 cleavage activity – biochemical, luminescence, SAR follow-up (AID 504497)
Format: functional
The source made the active and inactive calls.
# output must be one of Yes for active, No for inactive

line-notation | tested-on | discrete-label
Oc1cccc(/C=N/Nc2cc(N3CCCC3)nc(N3CCCC3)n2)c1 | Sentrin-specific protease 7 (Homo sapiens, UniProt Q9BQF6) | Yes
Fc1cc(F)cc(-c2noc(/C=C/c3ccccc3Cl)n2)c1 | Sentrin-specific protease 7 (Homo sapiens, UniProt Q9BQF6) | No
CC(C)CC(=O)Nc1ccc(-c2nc3cc(Cl)ccc3s2)cc1 | Sentrin-specific protease 7 (Homo sapiens, UniProt Q9BQF6) | Yes
Nc1ccc(-c2noc(/C=C/c3ccccc3)n2)cc1[N+](=O)[O-] | Sentrin-specific protease 7 (Homo sapiens, UniProt Q9BQF6) | No
Cc1cccc(C(=O)Nc2scc(-c3ccc(Br)cc3)c2C(=O)O)c1 | Sentrin-specific protease 7 (Homo sapiens, UniProt Q9BQF6) | Yes

Now for another entry.
Problem: I would be grateful if you could indicate the recorded call for `Cc1ccc2nc(NC(=O)c3cc(=O)c4cc(C)c(C)cc4o3)sc2c1` .
Result: No

Recorded values, source ChEMBL document CHEMBL1201862.
